Biological target: human prostanoid EP2 receptor (Homo sapiens)
Construct: expressed in transfected cells
Sequence (P43116 whole entry): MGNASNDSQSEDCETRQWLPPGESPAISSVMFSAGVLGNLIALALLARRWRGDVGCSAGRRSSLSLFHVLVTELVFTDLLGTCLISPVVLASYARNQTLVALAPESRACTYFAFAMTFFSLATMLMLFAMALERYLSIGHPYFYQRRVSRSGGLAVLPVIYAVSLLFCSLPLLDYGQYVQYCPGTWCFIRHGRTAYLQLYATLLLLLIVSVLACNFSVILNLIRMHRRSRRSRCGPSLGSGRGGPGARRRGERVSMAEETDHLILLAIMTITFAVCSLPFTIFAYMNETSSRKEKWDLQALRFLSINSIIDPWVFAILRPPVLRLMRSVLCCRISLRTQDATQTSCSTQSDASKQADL
Test: FLIPR Ca2+ signaling antagonist assay, EP2 receptor stable cell line
Type: cell-based
Conditions: human recombinant EP2 + chimeric Gqs in HEK-293 EBNA cells; standard agonist PGE2; NA = no antagonism or Kb>=10,000 nM
measure_name: Kb

Consider the worked cases shown below.
CC(C)Cn1ncc2cc(Cl)cc(Cn3ncc4cc(C(=O)O)cnc43)c21 [Compound 49] : > 10 µM
CC(C)Cn1ncc2cc(Cl)cc(Cn3ncc4cc(C(=O)O)ccc43)c21 [Compound 41] : 9.2 µM
Cc1nn(Cc2cc(Br)cc3cnn(CC(C)C)c23)c2ccc(C(=O)O)cc12 [Compound 53] : > 10 µM
CCC(CC)Cn1ncc2cc(Br)cc(Cn3ncc4cc(C(=O)O)ccc43)c21 [Compound 47] : 5 µM
CC(C)Cn1ncc2cc(Cl)cc(Cn3nc(N)c4cc(C(=O)O)ccc43)c21 [Compound 68] : > 10 µM

Task item: # query: Kb of entry CC(C)Cn1ncc2cc(Cl)cc(Cn3cnc4cc(C(=O)O)ccc43)c21 [Compound 50]
Reply: > 10 µM

Task item: Name the recorded Kb for CC(C)Cn1ncc2cc(Cl)cc(Cc3ncc4cc(C(=O)O)ccn34)c21 [Compound 61] .
Reply: > 10 µM

Task item: # lookup: Kb of CC(C)Cn1ncc2cc(Cl)cc(Cn3ccc4cc(C(=O)O)cnc43)c21 [Compound 52]
Reply: > 10 µM

Task item: Requested read-out: Kb. Entry: CC(C)n1ncc2cc(Br)cc(Cn3ncc4cc(C(=O)O)ccc43)c21 [Compound 46]
Reply: > 10 µM
